Origin of measurements: the EternaBench riboswitch data

# Test system: MS2 coat protein
# ASSAY INFO: apparent Kd, MS2 coat protein; higher = weaker binding; RNA-MaP array; tryptophan 2.4 mM where present
# MEASUREMENT PARAMETERS: designed as: OFF switch for tryptophan; no ligand
// values below are reported apparent Kd
API: value field is a number in nM; no unit string.

query_sequence=GGGUCAGGCGCGGCCGCCACUGCGGUGAUGUGACAUGAGGAUCACCCAUGUUGUCAUGUGGCACAUAGGACCGGGCGCCUGGCCC scale_unit=nM quantitative_readout=29.2

// fetch apparent Kd; item: "UAUUAUCAGUCGGCCGCCACUGACACAUGAGGAUCACCCAUGUAAUUUGGGUUAUAUAUAAAUUACAGGACCGGGACAAAGGCUA" ; system: MS2 coat protein
358

// fetch apparent Kd; item: "GUUGGAUACUCGGCCGCCACUGAGAGAGUCAUGUGAACAUGAGGAUCACCCAUGUAAUAUAUAUACAGGACCGGGAGUGUUGUAA" ; system: MS2 coat protein
21.6

// fetch apparent Kd; item: "AAUGUGAAGGCGGCCGCCACUGAUAAUAGACAUGAGGAUCACCCAUGUAUAAAUCCUCAAUAAGACAGGACCGGGCCAUCUACGU" ; system: MS2 coat protein
105

// fetch apparent Kd; item: "AAUAAUAAGAAUAACGUACCAGGUGAUCAACGAGGACCGGUACGGCCGCCACUCGAAACAUGAGGAUCACCCAUGUAAUAACAAU" ; system: MS2 coat protein
83.4

// fetch apparent Kd; item: "CCAUAAGUACCGGUCCUCAGAUCCUCAUGACGAGGACCGGUACGGCCGCCACUCGAAACAUGAGGAUCACCCAUGUAAUAAUAUU" ; system: MS2 coat protein
27.9

###

// values below are reported apparent Kd
# Tested on: MS2 coat protein
# ASSAY INFO: apparent Kd, MS2 coat protein; higher = weaker binding; RNA-MaP array; tryptophan 2.4 mM where present
# MEASUREMENT PARAMETERS: ligand present: tryptophan; designed as: OFF switch for tryptophan
API: value field is a number in nM; no unit string.

For orientation, consider the following solved cases.
query_sequence=AAUGUGAAGGCGGCCGCCACUGAUAAUAGACAUGAGGAUCACCCAUGUAUAAAUCCUCAAUAAGACAGGACCGGGCCAUCUACGU scale_unit=nM quantitative_readout=123
query_sequence=UACUUGCUGACGGCCGCCACUAGAACAUGAGGAUCACCCAUGUACCUGGUCCUUCAUGGGUGGACUAGGACCGGGUCAGCAAGAU scale_unit=nM quantitative_readout=549
query_sequence=AAGACAUGAGGAUCACCCAUGUCGUGUGAACGAGGACCGGUACGGCCGCCACUCGUUUGAAAAUAAACGAAUGCGGCCUGGGAAA scale_unit=nM quantitative_readout=14.2

Tell me measured apparent Kd for "UAUUAUCAGUCGGCCGCCACUGACACAUGAGGAUCACCCAUGUAAUUUGGGUUAUAUAUAAAUUACAGGACCGGGACAAAGGCUA" please.
295

Tell me measured apparent Kd for "ACGCCCGCCUCACAUGAGGAUCACCCAUGUCGAGGACCGGUACGGCCGCCACUCGUCGUCGGUAAUACGGGCGUUGAAUAAUAUA" please.
49.7

Tell me measured apparent Kd for "UAAUCCGGUCCUCGAUAAUCCUCAUGUAAACGAGGACCGGUACGGCCGCCACUCGAUAACAUGAGGAUCACCCAUGUAAUAAUAA" please.
46.5

Tell me measured apparent Kd for "UUCACAUGGUAUGAAUAUACAUACAAGAAACGAGGACCGGUACGGCCGCCACUCGUGCCGGAAACAUGAGGAUCACCCAUGUGUU" please.
45.4

Tell me measured apparent Kd for "GGGACUAGAUCGGCCGCCACUGAUGGGACAUGAGGAUCACCCAUGUACGAAGUGAUCCAAUAAAUCAGGACCGGGAUCACUUGUA" please.
225

Tell me measured apparent Kd for "AGAUUCGACACGGCCGCCACUCGUGACGGAUUUCCGAGUGUCGAACAUGAGGAUCACCCAUGUCCGAGGACCGGGUGUUGAGUCU" please.
522

Tell me measured apparent Kd for "GAGUAGAGGACGGCCGCCACUAAACAUGAGGAUCACCCAUGUCGUGAUCCGUUACCUAGAGUAGAUAGGACCGGGUCAUAUAGUC" please.
21.3

Tell me measured apparent Kd for "AGAUUCGACACGGCCGCCACUUGGAGUGGCUGCUAGCAUGUUACACAUGAGGAUCACCCAUGUCUAAGGACCGGGUGUUGAGUCU" please.
216

Tell me measured apparent Kd for "CCAUAAGUACCGGUCCUCAGAUCCUCAUGACGAGGACCGGUACGGCCGCCACUCGAAACAUGAGGAUCACCCAUGUAAUAAUAUU" please.
21

Tell me measured apparent Kd for "UCGGGCAUAGCGGCCGCCACUGUUUGGCGUGCGGAUGACGGAACAUGAGGAUCACCCAUGUUGUUUAGGACCGGGCUUGCGUCGU" please.
15.2

Tell me measured apparent Kd for "AAUAAACAUGAGGAUCACCCAUGUAGGGUGCGAGGACCGGUACGGCCGCCACUCGGGUGAAAACAUGAGGAUCACCCAUGUAAAA" please.
363

###

# Tested on: MS2 coat protein
# ASSAY INFO: apparent Kd, MS2 coat protein; higher = weaker binding; RNA-MaP array; theophylline 2 mM where present
# MEASUREMENT PARAMETERS: ligand present: theophylline; designed as: ON switch for theophylline
Decide using apparent Kd: a value greater than or equal to 20 nM is true (1), a smaller one is false (0).

query_sequence=GCUGUAAGUGCAGAUACCAGCAAGUGAGGUUUCAUAUGACAUGAGGAUCACCCAUGUAUCUGCCCUUGGCAGCUGCACUUACAGC label="false (0)"
query_sequence=UGUAACAUGAGGAUCACCCAUGUAAGUGAUACCAGAUAAGUAGUAGUCCCUUGGCAGCAUAUUGGGAAAGUGUAUAGUGUAUAUG label="true (1)"
query_sequence=AUCGUACCUGAAGAUACCAGCAUGUGAUCAUAACAUGAGGAUCACCCAUGUAAUCAGUGAUGCCCUUGGCAGCUUGAUCGGUACA label="false (0)"
query_sequence=CAGGUGCAGUCAGAUACCAGAUCUGCACAUGAGGAUCACCCAUGUGUAAUGAGUUCAAAGAUCCCUUGGCAGCUGUGUGAUCCGA label="true (1)"

Reported apparent Kd at or above 20 nM? "UCGUGUGUUUCGGAUACCAGUGAAAUCGAUACAUGAGGAUCACCCAUGUGAGAGGAUGUACACCCUUGGCAGCUGUCUGUAGCGG"
true (1)

###

# Test system: MS2 coat protein
# ASSAY INFO: apparent Kd, MS2 coat protein; higher = weaker binding; RNA-MaP array; FMN 200 µM where present
# MEASUREMENT PARAMETERS: ligand present: flavin mononucleotide; designed as: OFF switch for flavin mononucleotide
QUANTITY NAME: apparent Kd (nM)
API: value field is a number in nM; no unit string.

Tell me measured apparent Kd for "CCCACGAAAGUCGAACGAUGAUGGAGAAGGACAAUAACAUGACAUGAGGAUCACCCAUGUGCCAUGUAGGAUAUCCAUCAUGGG" please.
6.78

Tell me measured apparent Kd for "AAAAAGUGAGGAUAUACGGUGUGGAGUAGACACAACCAGACGUAGAAGGCACAUGAGGAUCACCCAUGUCCAAA" please.
21.4

###

// values below are reported apparent Kd
# Tested on: MS2 coat protein
# ASSAY INFO: apparent Kd, MS2 coat protein; higher = weaker binding; RNA-MaP array
# MEASUREMENT PARAMETERS: designed as: ON switch for flavin mononucleotide; no ligand
API: value field is a number in nM; no unit string.

For orientation, consider the following solved cases.
query_sequence=UUUACGAACGUGGAAAUACAUGAGGAUCACCCAUGUCAAUUGUAGGAUAUCCGGCUCAAAGAAAUGGAGAAGGACAACGACUCC quantity_name="apparent Kd" quantitative_readout=13.4
query_sequence=AGACAUGAGGAUCACCCAUGUUUGUGUAUCUGACCGCGCACUAGAAGGGAUUGGACAACUUACUAUCAGGAUAUAGACAACGGU quantity_name="apparent Kd" quantitative_readout=8.4
query_sequence=UACAUGAGGAUCACCCAUGUGUGUAGCUAUUACUGUUACAUCUAGGAUAUGUCGGGAACUCAACAACAGAAGGAGAUAGAAGGA quantity_name="apparent Kd" quantitative_readout=48.8
query_sequence=AGCCUGGAAGCAGGAUAUGGGAUACAUGAGGAUCACCCAUGUAAGAUAAUAGGGCAACGAAGAAGCCAGAAGGGCUCGAGGUAA quantity_name="apparent Kd" quantitative_readout=16.2
query_sequence=GGCGGGAGAAUAGGAUAUUCCGGUAAUCGACAUGAGGAUCACCCAUGUACCGUUCAACCGAUACCGAAGAAGGAUUAUAAGCCU quantity_name="apparent Kd" quantitative_readout=16.6
query_sequence=GCCUGACCCAUAGGAUAUCGCGUAGCUGCCGGCUACGACACAUGAGGAUCACCCAUGUAUCAAAUCGAGAAGGAUGAUCUGCAA quantity_name="apparent Kd" quantitative_readout=272
query_sequence=UUCUCAUCGUACAUGAGGAUCACCCAUGUCUCCCAUUUACCCUAGGAUAUGAAAGACCUUUACUCUCAGAAGGAGGAUGAUGCA quantity_name="apparent Kd" quantitative_readout=63.2
query_sequence=GACUACCAGUAAGGAUAUGCUCUUAUAAAAGGAGCAGAAGGUACCUGUGACGCCUACGGGCGACAUGAGGAUCACCCAUGUUCU quantity_name="apparent Kd" quantitative_readout=692

Tell me measured apparent Kd for "GUCCUACAUGAGGAUCACCCAUGUGGUCGUGGUAUAGGAUAUUAGGACUUUGUAAUCAGUUAAGAAGGAUAUCACU" please.
60.1

Tell me measured apparent Kd for "UAGAAAUCCUUGCAGGAUAUGUUGGAGUCUACAUGAGGAUCACCCAUGUUUAGUAGCAGGCGACGACAGAAGGGCAAUCUCAUGAU" please.
23.6

Tell me measured apparent Kd for "AUCACCUUCAAGAAGGUCCCAUACAUGAGGAUCACCCAUGUAAACAAAAUAAUAUGAAAUAAAAGGAAGGAUAUUGAACCAUGA" please.
55.1

Tell me measured apparent Kd for "AUAAAACUAAUACAUGAGGAUCACCCAUGUGAAACACAUACGAGAAGGGCGACAGUCUCAUACACGCAGGAUAUCGGCUAAACG" please.
10.8

Tell me measured apparent Kd for "UAGUAAACCGCAGGAUAUCCAACUUGGGCACCAGGAGAAGGGCGAUUAACAUGAGGAUCACCCAUGUAUUCGGAGAGCUUACCU" please.
10.4

Tell me measured apparent Kd for "CACCCGUCGACUUAGGAUAUACUGUUGUGAACAUGAGGAUCACCCAUGUAUUAAGCUAGAACGAAGUAGAAGGAAGUUUUCCUUGC" please.
15.6
